Each entry below lists one item and its recorded growth value.
- Tested on: HCT-116 colon
- PROTOCOL NOTES: NCI-60 one-dose screen, 48 h (100 = growth as untreated, 0 = no growth, -100 = all killed)
- MEASUREMENT CONTEXT: 10 µM
Compounds without any hit were thinned out: in the full panel of roughly 83,000, 20% have a hit.
Write the answer as a number in %, unit excluded.

| COMPOUND | growth, % |
| --- | --- |
| CN(C)c1nc(NCCNS(=O)(=O)c2ccc(C(=O)/C=C/c3ccccc3)cc2)nc(Nc2ccc(F)cc2)n1 | -53 |
| CN(C)c1ccc(/C=C/c2nc3ccccc3c(=O)n2CC(=O)Nc2ccc(Cl)cc2)cc1 | 56.8 |
| COc1nccnc1NS(=O)(=O)c1ccc(NC2=C(Cl)C(=O)c3nc(C)ccc3C2=O)cc1 | 92 |
| CC1(c2ccccc2)NC(=O)N(CC(=O)Nc2ccc(C(=O)/C=C/c3ccc(Br)cc3)cc2)C1=O (centres undefined) | -69.7 |
| CC(C)Sc1nc(NC2CC2)c(C#N)c(-c2ccccc2)n1 | 46.7 |

Ask | Item: `CC(=O)Nc1ccc(-c2cn(-c3cccc(C(=O)Nc4ccc(F)c(C(F)(F)F)c4)c3)nn2)cn1` Test system: HCT-116 colon Read-out: growth Value: ?
Reply | 14.7

Ask | Item: `CC(C)(C)Nc1nc2cc(Cl)c(Cl)cc2nc1S(C)(=O)=O` Test system: HCT-116 colon Read-out: growth Value: ?
Reply | 13.1

Ask | Item: `Cc1ccc(/C=C(\C#N)n2nnc3c(F)cccc32)cc1` Test system: HCT-116 colon Read-out: growth Value: ?
Reply | 27
